Values from patent US8067395B2

target: Btk (Homo sapiens); assay: Btk TR-FRET kinase inhibition assay; assay type: biochemical; conditions: pH 7.4, ATP at the Km for the kinase, 1 μM peptide substrate, [Btk]total=0.5 nM, read-out: Btk-TRFRET (Ki)
Sequence (Q06187 whole entry): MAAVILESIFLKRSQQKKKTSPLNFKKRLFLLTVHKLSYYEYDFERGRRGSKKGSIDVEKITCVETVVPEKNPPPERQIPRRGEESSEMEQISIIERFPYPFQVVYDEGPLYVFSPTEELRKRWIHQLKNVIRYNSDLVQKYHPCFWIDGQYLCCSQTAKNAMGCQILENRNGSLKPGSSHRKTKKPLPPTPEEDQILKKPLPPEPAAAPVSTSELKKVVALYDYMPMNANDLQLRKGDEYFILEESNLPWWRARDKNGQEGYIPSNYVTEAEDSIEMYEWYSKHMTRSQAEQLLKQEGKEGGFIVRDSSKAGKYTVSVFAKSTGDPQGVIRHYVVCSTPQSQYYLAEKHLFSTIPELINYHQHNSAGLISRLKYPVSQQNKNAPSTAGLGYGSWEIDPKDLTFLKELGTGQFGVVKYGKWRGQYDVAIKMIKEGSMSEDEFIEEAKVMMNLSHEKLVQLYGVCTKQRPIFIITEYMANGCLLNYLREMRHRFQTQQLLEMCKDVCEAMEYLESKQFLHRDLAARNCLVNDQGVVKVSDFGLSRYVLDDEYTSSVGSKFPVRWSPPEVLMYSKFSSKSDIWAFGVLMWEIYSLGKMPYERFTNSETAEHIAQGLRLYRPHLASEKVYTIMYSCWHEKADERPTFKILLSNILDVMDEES
Let's look at some compounds and their measured Ki.

May I ask what Ki has been recorded for Cc1cc(F)ccc1Nc1nc2ccc3c(C)c(/C=C/CN4CCP(=O)(CC5CC5)CC4)[nH]c(=O)c3c2n1C [Compound 13] ?
< 0.1 µM

May I ask what Ki has been recorded for Cc1c(C=NNC(=O)c2ccccc2)[nH]c(=O)c2c1ccc1nc(Nc3c(Cl)cccc3Cl)n(C)c12 [Compound 45] ?
0.1 to 1 µM

May I ask what Ki has been recorded for Cc1cc(F)ccc1Nc1nc2ccc3c(C)c(C=CCN4CCN(C(=O)c5ccccc5)CC4)[nH]c(=O)c3c2n1C [Compound 22] ?
< 0.1 µM

====

biological target: Btk (Homo sapiens); assay: Btk TR-FRET kinase inhibition assay; type: biochemical; details: pH 7.4, ATP at the Km for the kinase, 1 μM peptide substrate, [Btk]total=0.5 nM, read-out: Btk-TRFRET (Ki)
Assay endpoint: Ki

// solved cases for Ki follow
Smiles: Cc1c(C=NNC(=O)c2ccc(N(C)C)cc2)[nH]c(=O)c2c1ccc1nc(Nc3c(Cl)cccc3Cl)n(C)c12
Ki: > 1000 nM
//
Smiles: Cc1c(C=NNC(=O)c2ccccn2)[nH]c(=O)c2c1ccc1nc(Nc3c(Cl)cccc3Cl)n(C)c12
Ki: 100 to 1000 nM
//
Smiles: Cc1cc(F)ccc1Nc1nc2ccc3c(C)c(/C=C/CN4CCP(=O)(Cc5ccc(F)cc5)CC4)[nH]c(=O)c3c2n1C
Ki: < 100 nM

Next:
May I ask what Ki has been recorded for C#CCN(C)CC=Cc1[nH]c(=O)c2c(ccc3nc(Nc4c(Cl)cccc4Cl)n(C)c32)c1C ?
< 100 nM
